Entries annotated with measured growth
System: RXF 393 renal
EXPERIMENT: NCI-60 one-dose screen, 48 h (100 = growth as untreated, 0 = no growth, -100 = all killed)
PARTICULARS: 10 µM unless noted
This is part of a sample that, as a whole, favours compounds with a hit. Of some 83,000 tested, about 20% had one in any assay.
OUTCOME_MEASURE: growth (%)

• C[C@]12CC[C@@H]3c4ccc(O)c([N+](=O)[O-])c4CC[C@H]3[C@@H]1CCC2=O = 97
• Cc1ccc(C(C(N)=O)C(C(N)=O)c2ccccc2)cc1 (centres undefined) = 104
• CC[C@]12C=CCN3CC[C@@]4(c5cc(NC(=O)CCC(=O)OCc6cn(Cc7ccc(F)cc7)nn6)c(OC)cc5N(C)[C@H]4[C@@](O)(C(=O)OC)[C@@H]1OC(C)=O)[C@@H]32 = 103
• COc1ccc(-c2cn(-c3cc(OC)c(OC)c(OC)c3)c(=O)n2C(C)=O)cc1 = 109
